# Assay system: Ionotropic glutamate receptor NMDA 1/2C (Homo sapiens, UniProt Q05586+Q14957)
# Sequence (Q14957 whole entry, other chains not shown): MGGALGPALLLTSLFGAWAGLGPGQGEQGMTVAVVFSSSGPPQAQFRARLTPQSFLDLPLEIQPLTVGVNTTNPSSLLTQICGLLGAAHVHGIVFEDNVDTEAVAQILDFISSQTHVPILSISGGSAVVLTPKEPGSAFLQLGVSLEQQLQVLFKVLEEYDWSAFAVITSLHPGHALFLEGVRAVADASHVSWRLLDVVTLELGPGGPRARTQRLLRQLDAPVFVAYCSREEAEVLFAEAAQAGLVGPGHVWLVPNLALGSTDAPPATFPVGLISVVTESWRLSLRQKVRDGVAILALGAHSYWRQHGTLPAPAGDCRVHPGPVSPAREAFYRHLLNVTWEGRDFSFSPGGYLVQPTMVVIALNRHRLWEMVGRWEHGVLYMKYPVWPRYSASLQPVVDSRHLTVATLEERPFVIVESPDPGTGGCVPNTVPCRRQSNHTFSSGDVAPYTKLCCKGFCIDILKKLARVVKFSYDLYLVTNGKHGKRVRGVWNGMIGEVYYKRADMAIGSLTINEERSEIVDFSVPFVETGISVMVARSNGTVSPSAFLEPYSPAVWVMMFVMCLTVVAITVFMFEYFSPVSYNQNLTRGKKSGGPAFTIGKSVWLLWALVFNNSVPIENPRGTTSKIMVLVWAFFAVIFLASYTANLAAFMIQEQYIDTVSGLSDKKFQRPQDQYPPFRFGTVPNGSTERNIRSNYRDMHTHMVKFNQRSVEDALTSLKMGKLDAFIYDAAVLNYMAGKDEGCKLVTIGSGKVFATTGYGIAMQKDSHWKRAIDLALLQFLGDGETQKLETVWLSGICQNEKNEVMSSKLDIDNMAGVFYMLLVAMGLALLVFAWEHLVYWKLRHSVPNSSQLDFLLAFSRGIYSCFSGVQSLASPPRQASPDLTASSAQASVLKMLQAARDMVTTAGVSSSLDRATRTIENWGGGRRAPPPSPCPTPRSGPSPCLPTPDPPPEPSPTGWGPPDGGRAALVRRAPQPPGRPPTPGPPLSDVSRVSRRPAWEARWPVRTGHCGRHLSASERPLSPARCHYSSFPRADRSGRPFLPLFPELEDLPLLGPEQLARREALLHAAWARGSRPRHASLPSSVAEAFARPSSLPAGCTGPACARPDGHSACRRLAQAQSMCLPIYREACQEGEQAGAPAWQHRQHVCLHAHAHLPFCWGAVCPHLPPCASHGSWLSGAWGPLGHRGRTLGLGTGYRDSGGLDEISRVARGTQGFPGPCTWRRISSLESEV
# Test details: Positive allosteric modulation of GluN1/GluN2C NMDAR (unknown origin) expressed in Dox-inducible cells by BD calcium indicator dye based-fluorescence analysis in presence of glutamate/glycine
Measured property: EC50 (µM)
Give bare numbers, in µM.

Incoming: Return EC50 (reported value) for this compound: N#C[C@@H]1C[C@H]1c1c(C(F)(F)F)sc2nc(Cn3nc(C(F)(F)F)cc3Cl)cc(=O)n12
Outgoing: 7.4

###

# Assay system: Glutamate NMDA receptor; GRIN1/GRIN2A (Homo sapiens, UniProt Q05586+Q12879)
# Test details: Positive allosteric modulation of GluN1/GluN2A NMDAR (unknown origin) expressed in Dox-inducible cells at 125 uM measured every 5 mins by BD calcium indicator dye based-fluorescence analysis in presence of glutamate/glycine
# Assay type: cell-based
Measured property: %max (%)
Numbers only, in %.

Kindly give each listed record's %max.
1. CCNC(=O)c1c(C)sc2nc(CNc3ccc(F)cc3)cc(=O)n12
2. CCN(Cc1cc(=O)n2c([C@@H]3C[C@H]3CO)c(C)sc2n1)c1ccc(F)cc1

Outgoing:
1. 123
2. 184

Kindly give each listed record's %max.
1. Cc1sc2nc(Cn3nc(C(F)(F)F)cc3Cl)cc(=O)n2c1[C@@H]1C[C@H]1C#N
2. CCN(Cc1cc(=O)n2c(-c3cccnc3)c(C)sc2n1)c1ccc(F)cc1

Outgoing:
[151, 144]

Kindly give each listed record's %max.
1. CCNC(=O)c1c(C)sc2nc(Cc3cccc(C#N)c3F)cc(=O)n12
2. C=C(C)c1c(C)sc2nc(CN(CC)c3ccc(F)cc3)cc(=O)n12
3. CCNC(=O)c1c(C)sc2nc(COc3ccc(F)cc3)cc(=O)n12
4. CCN(Cc1cc(=O)n2c(N3CCOCC3)c(C)sc2n1)c1ccc(F)cc1

Outgoing:
102
143
77
69

Kindly give each listed record's %max.
1. CCN(Cc1cc(=O)n2cc(C)sc2n1)c1ccc(F)cc1
2. CCN(Cc1cc(=O)n2c(-c3cncnc3)c(C)sc2n1)c1ccc(F)cc1
3. CCNC(=O)c1c(C)sc2nc(Cn3nc(C(F)(F)F)cc3C)cc(=O)n12
4. Cc1sc2nc(COc3ccc(F)cc3)cc(=O)n2c1[C@@H]1C[C@H]1CO
5. CCNC(=O)c1c(C)sc2nc(Cc3cccc(C(F)(F)F)c3F)cc(=O)n12
6. CCNC(=O)c1c(C)sc2nc(CN(C)c3ccc(F)cc3)cc(=O)n12
7. Cc1sc2nc(Cc3cccc(C#N)c3F)cc(=O)n2c1C1CC1CO (racemic)
8. CCNC(=O)c1c(C)sc2nc(Cn3nc(C(F)(F)F)cc3OCC)cc(=O)n12

Outgoing:
150
148
128
122
94
159
160
144

###

# Test details: Blood clearance in mouse at 0.3 mg/kg, iv
# Assay type: ADME, organism-based
Measured property: clearance (mL/min/kg)
Numbers only, in mL/min/kg.

Incoming: Return clearance (reported value) for this molecule: N#C[C@@H]1C[C@H]1c1c(C(F)(F)F)sc2nc(Cn3nc(C(F)(F)F)cc3Cl)cc(=O)n12
Outgoing: 26

###

# Assay system: Ionotropic glutamate receptor NMDA 1/2D (Homo sapiens, UniProt O15399+Q05586)
# Sequence (O15399 whole entry, other chains not shown): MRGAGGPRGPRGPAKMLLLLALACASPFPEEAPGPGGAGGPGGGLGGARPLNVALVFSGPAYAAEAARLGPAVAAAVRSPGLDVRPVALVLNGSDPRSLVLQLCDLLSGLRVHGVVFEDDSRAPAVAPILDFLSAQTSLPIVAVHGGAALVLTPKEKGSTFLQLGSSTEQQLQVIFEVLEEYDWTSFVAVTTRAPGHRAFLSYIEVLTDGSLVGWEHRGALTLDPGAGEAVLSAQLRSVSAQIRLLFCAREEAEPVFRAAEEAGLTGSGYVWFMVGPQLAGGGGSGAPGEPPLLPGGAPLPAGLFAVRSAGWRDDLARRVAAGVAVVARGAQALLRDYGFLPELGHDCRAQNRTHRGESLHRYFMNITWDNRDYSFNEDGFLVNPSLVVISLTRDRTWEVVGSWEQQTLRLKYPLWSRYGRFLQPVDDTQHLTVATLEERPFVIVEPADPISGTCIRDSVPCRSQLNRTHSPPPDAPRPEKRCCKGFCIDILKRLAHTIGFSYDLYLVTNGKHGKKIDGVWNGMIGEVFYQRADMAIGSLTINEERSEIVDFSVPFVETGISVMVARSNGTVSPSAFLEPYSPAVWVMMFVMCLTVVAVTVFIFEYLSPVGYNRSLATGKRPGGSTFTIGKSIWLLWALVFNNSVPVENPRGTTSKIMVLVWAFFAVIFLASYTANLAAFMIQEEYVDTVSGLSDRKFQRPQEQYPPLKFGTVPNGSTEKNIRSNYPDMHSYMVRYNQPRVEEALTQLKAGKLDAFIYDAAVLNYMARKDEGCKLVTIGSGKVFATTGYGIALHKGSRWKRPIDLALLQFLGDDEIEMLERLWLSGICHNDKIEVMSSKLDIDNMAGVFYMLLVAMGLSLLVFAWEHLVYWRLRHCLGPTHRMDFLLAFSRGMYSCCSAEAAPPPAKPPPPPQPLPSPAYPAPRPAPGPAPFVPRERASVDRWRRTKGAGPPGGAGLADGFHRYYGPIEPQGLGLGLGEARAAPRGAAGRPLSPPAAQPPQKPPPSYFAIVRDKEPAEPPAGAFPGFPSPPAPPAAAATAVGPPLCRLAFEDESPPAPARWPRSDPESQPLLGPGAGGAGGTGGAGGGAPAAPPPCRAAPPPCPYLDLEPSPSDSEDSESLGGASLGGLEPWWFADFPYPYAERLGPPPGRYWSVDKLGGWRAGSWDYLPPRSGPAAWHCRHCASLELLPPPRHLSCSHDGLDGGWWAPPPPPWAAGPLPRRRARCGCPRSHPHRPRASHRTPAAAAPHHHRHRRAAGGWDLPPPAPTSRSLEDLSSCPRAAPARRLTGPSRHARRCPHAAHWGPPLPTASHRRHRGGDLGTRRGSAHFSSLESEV
# Test details: Positive allosteric modulation of GluN1/GluN2D NMDAR (unknown origin) expressed in Dox-inducible cells by BD calcium indicator dye based-fluorescence analysis in presence of glutamate/glycine
Measured property: pEC50
Numbers only, as −log10 of the molar value.

Incoming: Return pEC50 (reported value) for this compound: N#C[C@@H]1C[C@H]1c1c(C(F)(F)F)sc2nc(Cn3nc(C(F)(F)F)cc3Cl)cc(=O)n12
Outgoing: 5.21
